System: HCT116;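 note: Luminescence-based viability readout, five doses per compound, normalized against on-plate DMSO and empty-well controls, followed by dose-response curve fitting for every drug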
protocol.notes: efficacy (fitted maximal change in viability relative to DMSO control); higher = less cytotoxic (negative = loss of viability)
experimental.context: 48 h
reported.property: efficacy (%)
Numeric answer only, unit % assumed.

The recorded efficacy for CC(C)C1NC(=O)C(NC(=O)C2=C3\N=C\4/C(=C(C)\C(=O)\C(=C4C(=O)NC5C(C)OC(=O)C(C(C)C)N(C)C(=O)CN(C)C(=O)C6CCCN6C(=O)C(NC5=O)C(C)C)N)OC3=C(C)C=C2)C(C)OC(=O)C(C(C)C)N(C)C(=O)CN(C)C(=O)C7CCCN7C1=O (configuration not stated) [Actinomycin D] is -73.8

The recorded efficacy for O=C(O)C(=O)Nc1cccc(-c2nnn[nH]2)c1 [Acitazanolast] is 17

The recorded efficacy for CCN1C(=O)C\N=C/2N\C=C(/N=C12)C3=C(C)N=C(C=C3)C4=NN=C[NH]4 [CC-115] is -71

The recorded efficacy for Cc1cc2c(cc1C1(c3ccc(C(=O)O)cn3)CC1)C(C)(C)CCC2(C)C is -25.8

The recorded efficacy for Cc1cc(O)c(-c2ccc([C@@H](C)CN(C)C)cc2)c2c1[nH]c(=O)c1sccc12 [OTS964] is -63.1

The recorded efficacy for NC(=O)[C@H]1CCS[C@@H]2C[C@]3(CCCN3C(=O)Cc3ccc(NC(=O)COc4ccc(Cl)cc4Cl)cc3)C(=O)N12 [ST-2825] is -68.6

The recorded efficacy for CN(CCOc1ccc(-c2ccc3c(c2)OCO3)cc1C(C)(C)C)CC(=O)O is -58.3

Entry source: the supplement of paper PMC10290057
